Entry source: ChEMBL document CHEMBL4342407

Tested on: Klebsiella pneumoniae
Experiment: Antibacterial activity against Klebsiella pneumoniae assessed as zone inhibition at 100 ug/ml
Assay type: functional
Measurement Context: read-out: IZ
Answer each item with its documented zone of inhibition at 100 µg/mL.
Entry rule: numbers only, all in mm.

Lab request: please report zone of inhibition at 100 µg/mL under test system Klebsiella pneumoniae for FC(F)(F)c1ccc(C2=NOC(c3cc4cncnc4s3)C2)cc1 (stereo not given)
16.5

Quick check: zone of inhibition at 100 µg/mL on Klebsiella pneumoniae, item c1cnc(C2=NOC(c3cc4cncnc4s3)C2)cn1 (stereo not given) ?
12.5

Report zone of inhibition at 100 µg/mL for FC(F)(F)Oc1ccc(C2=NOC(c3cc4cncnc4s3)C2)cc1 (stereo not given) tested on Klebsiella pneumoniae.
15

Find zone of inhibition at 100 µg/mL (Klebsiella pneumoniae) for the entry c1csc(C2=NOC(c3cc4cncnc4s3)C2)c1 (stereo not given)
14.5

Provide the documented zone of inhibition at 100 µg/mL with Klebsiella pneumoniae as the system for CC1(C)S[C@@H]2[C@H](NC(=O)[C@H](N)c3ccc(O)cc3)C(=O)N2[C@H]1C(=O)O [AMOXICILLIN]
18

====

System: MCF7
Experiment: Antiproliferative activity against human MCF7 after 18 hrs by MTT assay
Type: functional, cell-based
Measurement Context: MCF7, 18 h
Metric: pIC50
# pIC50 = -log10(concentration in molar units)

Item Cc1ccc(-c2cc(COc3ncnc4sc(C)cc34)on2)cc1 has what recorded pIC50?
4.87

====

Tested on: Human alphaherpesvirus 1
Experiment: Antiviral activity against Herpes simplex virus 1 at 20 ug/10^5
Assay type: functional
Metric: Activity
Write your answer as a measured quantity: the number, then the unit.

Given the entry COCCSc1nc(C)nc2sc3c(c12)-c1ccccc1CC3 , report its measured Activity.
5%

# input compound: OCCSc1ncnc2sc3c(c12)-c1ccccc1CC3 ; wanted: its Activity
5%

Can you share its Activity? I mean this compound: Nc1nc2c(ncn2COCCO)c(=O)[nH]1
100%

Look up Activity: Cc1nc(SCCO)c2c3c(sc2n1)CCc1ccccc1-3
40%

Entry under review: COCCSc1ncnc2sc3c(c12)-c1ccccc1CC3 . Reported Activity?
15%

====

Experiment: Ulcerogenic activity in Wistar albino rat assessed as ulcer index at 250 mg/kg, ip pretreated for 1 hr followed by pylorus ligation and measured at 4 hrs post ligation
Type: toxicity, organism-based
Measurement Context: in vivo
Record form. Attribute: UI. Fill in for each entry.
# output: bare number, no unit

Given C[C@]12CC[C@H]3[C@@H](CC=C4CC(O)CC[C@@]43C)[C@@H]1CC[C@@H]2c1csc(N)c1C(=O)NN (some centres not stated) , state its recorded UI.
0.62

Requested read-out: UI. Entry: C[C@]12CC[C@H]3[C@@H](CC=C4CC(O)CC[C@@]43C)[C@@H]1CC[C@@H]2C1=CSC2N=CN(N)C(=O)C12 (some centres not stated)
1.02

Query (molecule): C[C@]12CC[C@H]3[C@@H](CC=C4C[C@H](O)CC[C@@]43C)[C@@H]1CC[C@@H]2c1csc(N)c1-c1nnc(SCC(=O)c2ccccc2)n1-c1ccccc1 ; field requested: UI
0.83

Which UI value is on record for COc1ccc(C2=NC3SC=C([C@H]4CC[C@H]5[C@@H]6CC=C7CC(O)CC[C@]7(C)[C@H]6CC[C@]45C)C3C(=O)N2N)cc1 (some centres not stated) ?
0.29

I'd like to know its UI. The molecule in question is C[C@]12CC[C@H]3[C@@H](CC=C4CC(O)CC[C@@]43C)[C@@H]1CC[C@@H]2c1csc(N)c1-c1nnc(S)n1-c1ccccc1 (some centres not stated)
1.29

Can you look up the measured UI of CC(=C(C#N)C(=O)NN)[C@H]1CC[C@H]2[C@@H]3CC=C4CC(O)CC[C@]4(C)[C@H]3CC[C@]12C (some centres not stated) for me?
2.11

Which UI value is on record for C[C@]12CC[C@H]3[C@@H](CC=C4CC(O)CC[C@@]43C)[C@@H]1CC[C@@H]2c1csc(N)c1C(=O)NNC(=S)Nc1ccccc1 (some centres not stated) ?
2.11
